Tested on: HEK-293T
Experiment: Multiplex assay against HEK293T;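 also: share of the cells with healthy nuclei that show this phenotype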
Assay type: toxicity, cell-based
Details: human, 12 h, 1 µM, compound concentration 1 uM, replicate 1
Where Population Tubulin-Different-Phenotype (%) equals or exceeds 60%, the correct label is Condition met; where it does not, the label is Condition not met.

Ask | Does the molecule Cc1c(-c2ccc(O)cc2)n(Cc2ccc(OCCN3CCCCCC3)cc2)c2ccc(O)cc12 [BAZEDOXIFENE] have recorded Population Tubulin-Different-Phenotype (%) that is 60% or more?
Reply | Condition met

Ask | Does the molecule CCN(CC)CCCCNc1ncc2cc(-c3cc(OC)cc(OC)c3)c(NC(=O)NC(C)(C)C)nc2n1 [PD-173074] have recorded Population Tubulin-Different-Phenotype (%) that is 60% or more?
Reply | Condition not met

Ask | Does the molecule CNc1nc(NCc2ccc(NS(C)(=O)=O)cc2Cl)cc(-c2ccccn2)n1 have recorded Population Tubulin-Different-Phenotype (%) that is 60% or more?
Reply | Condition not met

Ask | Does the molecule C=CC(=O)Nc1ccc2ncnc(Nc3ccc(OCc4cccc(F)c4)c(Cl)c3)c2c1.Cc1ccc(S(=O)(=O)O)cc1 have recorded Population Tubulin-Different-Phenotype (%) that is 60% or more?
Reply | Condition not met

Ask | Does the molecule COc1ncc(-c2ccc3nccc(-c4ccnnc4)c3c2)cc1NS(=O)(=O)c1ccc(F)cc1F [OMIPALISIB] have recorded Population Tubulin-Different-Phenotype (%) that is 60% or more?
Reply | Condition not met

Ask | Does the molecule NC(=O)Nc1cc(-c2cccc(F)c2)sc1C(=O)N[C@H]1CCCNC1 [AZD-7762] have recorded Population Tubulin-Different-Phenotype (%) that is 60% or more?
Reply | Condition not met

Ask | Does the molecule C[C@@]1(C(=O)Nc2ccc(F)nc2)CCCN1c1nc(Nc2cc(C3CC3)n[nH]2)c2cccn2n1 [BMS-754807] have recorded Population Tubulin-Different-Phenotype (%) that is 60% or more?
Reply | Condition met

Ask | Does the molecule CN(C)C(=O)/C(C#N)=C/c1ccc(-c2nc3cnc4[nH]ccc4c3n2C2CCCCC2)o1 have recorded Population Tubulin-Different-Phenotype (%) that is 60% or more?
Reply | Condition not met

Ask | Does the molecule CN1CCN(c2ccc(OC(F)(F)F)c(Nc3ncc4c(n3)-c3c(c(C(N)=O)nn3CCO)CC4)c2)CC1 [ONVANSERTIB] have recorded Population Tubulin-Different-Phenotype (%) that is 60% or more?
Reply | Condition not met

Ask | Does the molecule Cc1nc(-c2ccc(-c3ccc(C(=O)N4CCc5cc6c(cc54)C4(CCN(C)CC4)CO6)cc3)c(C)c2)no1 [SB-224289] have recorded Population Tubulin-Different-Phenotype (%) that is 60% or more?
Reply | Condition met

Ask | Does the molecule CN1CCCC(n2nc(Cc3ccc(Cl)cc3)c3ccccc3c2=O)CC1.Cl (stereo unspecified) [AZELASTINE HYDROCHLORIDE] have recorded Population Tubulin-Different-Phenotype (%) that is 60% or more?
Reply | Condition met

Ask | Does the molecule COc1cc(-n2cnc3cc(-c4ccc(Cl)cc4)sc3c2=O)ccc1OCCN1CCCC1 have recorded Population Tubulin-Different-Phenotype (%) that is 60% or more?
Reply | Condition met

Ask | Does the molecule CC(C)NCC(O)COc1ccc(CCOCC2CC2)cc1.Cl (stereo unspecified) [BETAXOLOL HYDROCHLORIDE] have recorded Population Tubulin-Different-Phenotype (%) that is 60% or more?
Reply | Condition not met

Ask | Does the molecule C[C@@H](NCCCc1cccc(C(F)(F)F)c1)c1cccc2ccccc12.Cl [CINACALCET HYDROCHLORIDE] have recorded Population Tubulin-Different-Phenotype (%) that is 60% or more?
Reply | Condition met

Ask | Does the molecule CN(C)CC#Cc1ccc(OCCCc2sc(N3CCc4cccc(C(=O)Nc5nc6ccccc6s5)c4C3)nc2C(=O)O)c(F)c1 [A-1155463] have recorded Population Tubulin-Different-Phenotype (%) that is 60% or more?
Reply | Condition not met
